Target: Circumsporozoite protein (CSP) (Plasmodium falciparum (isolate 3D7), UniProt Q7K740)
Sequence (Q7K740 19-374): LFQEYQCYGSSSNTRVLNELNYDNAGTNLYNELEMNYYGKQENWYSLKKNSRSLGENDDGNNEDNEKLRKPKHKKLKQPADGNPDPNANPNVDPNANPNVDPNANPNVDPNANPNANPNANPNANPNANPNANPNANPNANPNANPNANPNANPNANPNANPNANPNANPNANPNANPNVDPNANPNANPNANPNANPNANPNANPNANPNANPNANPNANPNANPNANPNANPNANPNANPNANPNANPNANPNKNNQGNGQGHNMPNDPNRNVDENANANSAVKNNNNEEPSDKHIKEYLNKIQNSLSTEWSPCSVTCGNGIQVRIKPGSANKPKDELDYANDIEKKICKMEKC
Assay: AVEXIS screen signal:noise (double-corrected)
No end group written: not given here.
binding score for assorted binders

>  <BINDER>
ADP372 (protein, bait human Fc-tagged dimer) MARAMAAAWPLLLVALLVLSWPPPGTGDVVVQAPTQVPGFLGDSVTLPCYLQVPNMEVTHVSQLTWARHGESGSMAVFHQTQGPSYSESKRLEFVAARLGAELRNASLRMFGLRVEDEGNYTCLFVTFPQGSRSVDIWLRVLAKPQNTAEVQKVQLTGEPVPMARCVSTGGRPPAQITWHSDLGGMPNTSQVPGFLSGTVTVTSLWILVPSSQVDGKNVTCKVEHESFEKPQLLTVNLTVYYPPEVSISGYDNNWYLGQNEATLTCDARSNPEPTGYNWSTTMGPLPPFAVAQGAQLLIRPVDKPINTTLICNVTNALGARQAELTVQVKEGPPSEHSGISRN

>  <binding score>
1.04

$$$$
>  <BINDER>
MASLGHILVFCVGLLTMAKAESPKEHDPFTYDYQS (also: human Fc-tagged dimer) [ADP327]

>  <binding score>
1.89

$$$$
>  <BINDER>
ADP102 (protein, bait human Fc-tagged dimer) MARGAALALLLFGLLGVLVAAPDGGFDLSDALPDNENKKPTAIPKKPSAGDDFDLGDAVVDGENDDPRPPNPPKPMPNPNPNHPSSSGSFSDADLADGVSGGEGKGGSDGGGSHRKEGEEADAP

>  <binding score>
0.919

$$$$
>  <BINDER>
ADP103 (protein, bait human Fc-tagged dimer) MAAALFVLLGFALLGTHGASGAAGFVQAPLSQQRWVGGSVELHCEAVGSPVPEIQWWFEGQGPNDTCSQLWDGARLDRVHIHATYHQHAASTISIDTLVEEDTGTYECRASNDPDRNHLTRAPRVKWVRAQAVVLVLEPGTVFTTVEDLGSKILLTCSLNDSATEVTGHRWLKGGVVLKEDALPGQKTEFKVDSDDQWGEYSCVFLPEPMGTANIQLHGPPRVKAVKSSEHINEGETAMLVCKSESVPPVTDWAWYKITDSEDKALMNGSESRFFVSSSQGRSELHIENLNMEADPGQYRCNGTSSKGSDQAIITLRVRSHL

>  <binding score>
0.981

$$$$
>  <BINDER>
ADP388 (protein, bait human Fc-tagged dimer) SEGHGGAQLQAELRSLKEAFSNFSSSTLTEVQAISTHGGSVGDKITSLGAKLEKQQQDLKADHDALLFHLKHFPVDLRFVACQMELLHSNGSQRTCCPVNWVEHQGSCYWFSHSGKAWAEAEKYCQLENAHLVVINSWEEQKFIVQHTNPFNTWIGLTDSDGSWKWVDGTDYRHNYKNWAVTQPDNWHGHELGGSEDCVEVQPDGRWNDDFCLQVYRWVCEKRRNATGEVA

>  <binding score>
0.484

$$$$
